These measurements were taken from PubChem BioAssay (NCI).

tested on: HS 578T breast; assay: NCI-60 one-dose screen, 48 h (100 = growth as untreated, 0 = no growth, -100 = all killed); conditions: 10 µM unless noted
Compounds without any hit were thinned out: in the full panel of roughly 83,000, 20% have a hit.
Short version: growth at least 20% is Yes, less is No.

Compound	Assigned Class
Oc1c(CCl)cc(Cl)cc1CCl	Yes
Cc1cc(N(CCCl)CCCl)ccc1C=Nc1ccc(-c2csc(Cc3ccccc3)n2)cc1	Yes
CC[C@@H]1[C@@H](C)O[C@@](O)([C@@H](C)[C@H](O)[C@H](C)[C@H]2OC(=O)/C=C/C=C/[C@H](C)[C@@H]([C@@H](C)[C@@H](O)[C@H](C)[C@@]3(O)C[C@@H](O[C@H]4C[C@@H](O)[C@H](O)C(C)O4)[C@H](CC)[C@@H](C)O3)OC(=O)/C=C/C=C/[C@@H]2C)C[C@H]1O[C@@H]1C[C@@H](O)[C@H](O)C(C)O1 (stereo not given in full)	No
COc1ccc(C(=O)c2cc(OC)c(OC)c(OC)c2)cc1OC(C)=O	Yes
COc1cc(C=Nc2cc(Cl)cc(Cl)c2)ccc1N(CCCl)CCCl	Yes
COC(=O)[C@@H](C)C[C@H](Cc1ccccc1)NC(=O)c1csc([C@@H](C[C@H](C(C)C)N(C)C(=O)[C@H](C)NC(=O)[C@H]2CCCCN2C)OC(C)=O)n1	No
CCC[CH2][Sn]([CH2]CCC)([CH2]CCC)[O]c1ccc(Cl)cc1Cl	No
Cc1ccc2c(C(C[N+](=O)[O-])c3cccs3)c(-c3ccccc3)[nH]c2c1 (stereo not given)	No
CC(=O)O[C@H](C[C@H](C(C)C)N(C)C(=O)[C@@H](NC(=O)[C@H]1CCCCN1C)C(C)(C)C)c1nc(C(=O)N[C@@H](Cc2ccccc2)C[C@H](C)C(=O)O)cs1	No
CCCCCN(CCCCC)CC(O)c1cc(Cl)ccc1OC (stereo not given)	Yes
O=C(CN1CCN(C(=O)c2ccco2)CC1)Nc1ccc(Cl)cc1C(=O)c1ccccc1Cl	Yes
COc1ccc(NC([Se])=NC23CC4CC(CC(C4)C2)C3)cc1	No
O=C(CC1(O)C(=O)N(Cc2ccccc2)c2ccc(F)cc21)c1ccc(C(=O)NCC2CCC3(CC2)OOC2(CCCCC2)OO3)cc1 (stereo not given)	No
C[C@@]12CC[C@@H](O)C[C@@H]1CC[C@H]1[C@H]2CC[C@@]2(C)[C@H](c3ccc(=O)oc3)CC[C@@]12O	No
O=C1CNC(c2ccccc2)c2cc(Cl)ccc2N1 (stereo not given)	Yes
C[CH2][Sn]([Cl])([Cl])[CH2]C.Oc1ccccc1C=NCCN=Cc1ccccc1O	Yes
O=C(Nc1ccc(Cl)cc1)Nc1nccs1	Yes
CCCCCCCCC(CO)NCCc1ccccc1 (stereo not given)	Yes
ClCCN(CCCl)c1ccc(-n2cnc3c(Cl)ncnc32)cc1	Yes
O=[As](O)(O)c1ccccc1[As](=O)(O)O	Yes
Nc1ccc2c(c1)oc1ccccc12	Yes
[Cl][Hg][c]1cc(Br)cc(Br)c1	Yes
CCNc1nc(Cl)nc(NCC)n1	Yes
CCOC(=O)N[C@H]1CCc2c(Br)c(OC)c(OC)c(OC)c2-c2ccc(SC)c(=O)cc21	No
COc1ccc(N(CC(=O)NCCC[Te]c2ccccc2)C(=O)CCSC2=C(C)C(=O)c3ccccc3C2=O)cc1	No
C=CCCCN=C=S	Yes
CC[C@H](C)[C@H](NC(=O)[C@H]1CCCCN1C)C(=O)N(C)[C@H](C[C@@H](OC(C)=O)c1nc(C(=O)N[C@@H](Cc2ccccc2)C[C@H](C)C(=O)OC)cs1)C(C)C	Yes
CN(CCCCN(C)CCOS(C)(=O)=O)CCOS(C)(=O)=O	Yes
CC(=O)Oc1ccccc1C(=O)NCCC[Se]C#N	No
COc1ccc(N(CC(=O)NCCC[Te]c2ccccc2)C(=O)CNC(=O)OC(C)(C)C)cc1	No
